- SYSTEM: Nonstructural protein 1 (Influenza A virus, UniProt Q194T2)
- Sequence (Q194T2 whole entry): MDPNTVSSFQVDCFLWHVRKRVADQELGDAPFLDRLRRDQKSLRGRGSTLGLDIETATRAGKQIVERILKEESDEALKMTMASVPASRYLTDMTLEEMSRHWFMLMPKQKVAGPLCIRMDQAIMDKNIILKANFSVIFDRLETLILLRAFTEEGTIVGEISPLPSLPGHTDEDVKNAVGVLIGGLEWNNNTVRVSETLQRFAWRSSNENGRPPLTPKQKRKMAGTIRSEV
- Format: functional, Influenza A virus (A/California/07/2009(H1N1))
The source made the active and inactive calls.

{"columns": ["STRUCTURE SMILES", "IC50"],
 "data": [
  ["Cn1nnnc1N=N/C(=N/Nc1ccccc1)c1ccccc1", "26.5 µM (active)"],
  ["O=[N+]([O-])c1ccc(N2CCOCC2)cc1NC(c1ccccc1)c1ccccc1", "> 100 µM (active)"],
  ["CC1CCN(C2=C(NS(=O)(=O)c3ccc(Br)cc3)C(=O)c3ccccc3C2=O)CC1", "10.8 µM (active)"],
  ["NC(=O)C1CCN(c2oc(-c3ccccc3)nc2S(=O)(=O)c2ccc(Br)cc2)CC1", "> 100 µM (active)"],
  ["O=[N+]([O-])c1ccccc1/C=C\\C=N\\N1CCN(c2ccccc2)CC1", "59.2 µM (active)"],
  ["Cc1ccc(O)c(NN=C2C(=O)CC(C)(C)CC2=O)c1", "13.2 µM (active)"],
  ["c1ccc(COc2nsnc2N2CCOCC2)cc1", "> 100 µM (active)"],
  ["Cn1c(=O)c2c(nc(NN/C=C3/C(=O)NC(=S)N(c4ccccc4)C3=O)n2C)n(C)c1=O", "20.9 µM (active)"]
]}

* * *

- SYSTEM: UniProt:P9WMR3
- Sequence (P9WMR3 1-399, added parts left off): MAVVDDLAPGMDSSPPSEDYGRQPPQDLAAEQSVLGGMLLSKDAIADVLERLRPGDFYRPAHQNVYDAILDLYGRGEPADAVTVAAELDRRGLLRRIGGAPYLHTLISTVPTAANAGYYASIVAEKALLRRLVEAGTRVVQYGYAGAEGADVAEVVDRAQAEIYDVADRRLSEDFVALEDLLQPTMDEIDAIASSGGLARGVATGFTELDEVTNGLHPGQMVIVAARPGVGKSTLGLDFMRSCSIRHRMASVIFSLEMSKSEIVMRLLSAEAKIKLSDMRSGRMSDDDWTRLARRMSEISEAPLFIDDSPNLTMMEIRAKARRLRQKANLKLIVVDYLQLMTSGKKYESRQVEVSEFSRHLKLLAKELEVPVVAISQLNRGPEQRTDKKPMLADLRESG
- ASSAY INFO: DnaB intein splicing inhibitors, dose response, biochemical, cell-free fluorescence (AID 449749)
- Assay type: functional
Calls of active or inactive are those of the source.
Outcomes: T = active, F = inactive

{"columns": ["COMPOUND", "CLASSIFICATION"],
 "data": [
  ["CC(=O)N(CCC(Cc1ccccc1)c1ccc2c(c1)OCO2)Cc1ccccc1F (stereo unspecified)", "T"],
  ["O=C(CSCc1cc(O)n[nH]1)Nc1ccc(F)cc1", "T"],
  ["COc1cc(C(=O)CSc2nnc(-c3ccc(O)cc3)n2CC2CCCO2)ccc1NC(C)=O (stereo unspecified)", "F"],
  ["CC(=O)Nc1ccc(OC(=O)c2ccco2)cc1", "T"],
  ["COc1ccc(/C=C2/C(=O)N(c3ccccc3)N=C2C)cc1OC", "T"],
  ["CCOC(=O)c1nn(-c2ccccc2C)c(=O)c2c(N)scc12", "F"]
]}

* * *

Measured AC50 on Cytochrome P450 3A4 (Homo sapiens) follows.
Sequence (P08684 whole entry): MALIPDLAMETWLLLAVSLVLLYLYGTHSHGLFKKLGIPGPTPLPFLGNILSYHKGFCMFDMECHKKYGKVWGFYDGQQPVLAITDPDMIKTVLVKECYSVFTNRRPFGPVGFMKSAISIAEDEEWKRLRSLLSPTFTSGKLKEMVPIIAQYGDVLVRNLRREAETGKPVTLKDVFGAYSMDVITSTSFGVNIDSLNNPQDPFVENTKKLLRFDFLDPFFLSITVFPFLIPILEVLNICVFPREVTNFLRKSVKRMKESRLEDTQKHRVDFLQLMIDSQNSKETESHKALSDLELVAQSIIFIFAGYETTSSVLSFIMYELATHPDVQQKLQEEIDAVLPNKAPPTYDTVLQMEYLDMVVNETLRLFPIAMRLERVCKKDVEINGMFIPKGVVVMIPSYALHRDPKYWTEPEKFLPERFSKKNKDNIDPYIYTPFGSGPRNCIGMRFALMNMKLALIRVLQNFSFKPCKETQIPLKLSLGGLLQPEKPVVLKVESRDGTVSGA

{"columns": ["MOLECULE", "SYSTEM", "AC50"],
 "data": [
  ["O=S(=O)(c1ccccc1)N1CCC2(CCN(C(c3ccccc3)c3ccccc3)CC2)CC1", "Cytochrome P450 3A4 (Homo sapiens)", "inconclusive"],
  ["O=C(O)C1CCC(=O)N(C2CC2)C1c1ccccc1 (configuration not stated)", "Cytochrome P450 3A4 (Homo sapiens)", "inconclusive"],
  ["Cc1ccc(S(=O)(=O)Oc2ccc(/C=C(/NC(=O)c3ccccc3)C(=O)Nc3ccccc3)cc2)cc1", "Cytochrome P450 3A4 (Homo sapiens)", "inconclusive"],
  ["O=C(CCCc1ccccc1)N1CCN(c2ccc([N+](=O)[O-])cc2)CC1", "Cytochrome P450 3A4 (Homo sapiens)", "inconclusive"],
  ["CCOC(=O)C1C(=O)C=C(c2ccc(C)cc2)CC1c1ccco1 (configuration not stated)", "Cytochrome P450 3A4 (Homo sapiens)", "inconclusive"],
  ["CN(C)c1ncc2nc(-c3ccc(F)cc3)c(=O)n(Cc3ccc(F)cc3)c2n1", "Cytochrome P450 3A4 (Homo sapiens)", "inconclusive"],
  ["CSc1ccc(NC(=O)NCCCN2CCN(c3ccccc3F)CC2)cc1", "Cytochrome P450 3A4 (Homo sapiens)", "inconclusive"]
]}
